Target: RIPK2 and XIAP protein-protein interaction (Homo sapiens)
Construct: the N-terminus of full-length RIPK2 was appended with the HaloTag fusion protein
Sequence (O43353 whole entry, the tested form may be a part): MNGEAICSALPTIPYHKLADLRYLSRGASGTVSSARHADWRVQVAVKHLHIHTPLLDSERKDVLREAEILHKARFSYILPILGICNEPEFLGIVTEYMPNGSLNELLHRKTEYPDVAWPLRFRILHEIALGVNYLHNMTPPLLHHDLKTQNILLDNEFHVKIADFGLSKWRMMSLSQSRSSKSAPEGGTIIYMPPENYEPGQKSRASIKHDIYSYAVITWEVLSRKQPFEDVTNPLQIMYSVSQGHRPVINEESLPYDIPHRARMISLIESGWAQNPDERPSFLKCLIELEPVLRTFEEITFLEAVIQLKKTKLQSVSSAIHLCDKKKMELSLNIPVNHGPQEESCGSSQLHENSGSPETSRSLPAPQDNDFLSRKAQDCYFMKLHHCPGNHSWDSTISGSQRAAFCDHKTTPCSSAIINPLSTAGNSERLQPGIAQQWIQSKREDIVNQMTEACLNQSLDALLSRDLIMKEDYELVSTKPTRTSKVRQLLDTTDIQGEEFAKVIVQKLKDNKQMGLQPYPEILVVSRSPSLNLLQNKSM
Experiment: Inhibition of the interaction of RIPK2 with XIAP (NanoBRET in HEK293T cells)
Details: RIPK2 HaloTag / XIAP NanoLuc, read-out: NanoBRET Scaffolding IC50
Source text: An assay measuring the RIPK2 and XIAP protein-protein interaction was generated using the NanoBRET protein:protein interaction system (Promega) which measures the energy transfer from a bioluminescent protein donor (NanoLuc fusion protein) to a fluorescent protein acceptor (Halotag fusion protein). In this assay, the C-terminus of full-length XIAP was appended with the NanoLuc fusion protein and the N-terminus of full-length RIPK2 was appended with the HaloTag fusion protein. […]
Assign pIC50 to each entry below.
Answers are plain numbers, as −log10 of the molar value.

Use these answered entries as a reference point.
Return the recorded pIC50 value; entry: Cc1c(Oc2ccnc3ccc(CS(C)(=O)=O)cc23)cc(F)c(CC(=O)Nc2cnn(C(C)(C)C)c2)c1F
7.21

Return the recorded pIC50 value; entry: Cc1cc(CC(=O)Nc2cnn(C(C)(C)C)c2)c(F)cc1Oc1ccnc2ccc(-c3nccnc3C(F)(F)F)cc12
6.88

Respectfully, I request pIC50 for each entry included below.
1. Cc1cc(CC(=O)Nc2cnn(C(C)(C)C)c2)ccc1Oc1ccnc2cc(C)c(S(C)(=O)=O)cc12
2. Cc1cc(CC(=O)Nc2cnn(C34CC(C3)C4)c2)ccc1Oc1ccnc2ccc(S(=N)(=O)C3CC3)cc12 (single isomer, unassigned) [Compound 529]

1. 7.15
2. 7.12

----------
Molecular target: RIPK2 enzyme (Homo sapiens)
Construct: purchased Carna 09-128
Sequence (O43353 1-299 limits assumed): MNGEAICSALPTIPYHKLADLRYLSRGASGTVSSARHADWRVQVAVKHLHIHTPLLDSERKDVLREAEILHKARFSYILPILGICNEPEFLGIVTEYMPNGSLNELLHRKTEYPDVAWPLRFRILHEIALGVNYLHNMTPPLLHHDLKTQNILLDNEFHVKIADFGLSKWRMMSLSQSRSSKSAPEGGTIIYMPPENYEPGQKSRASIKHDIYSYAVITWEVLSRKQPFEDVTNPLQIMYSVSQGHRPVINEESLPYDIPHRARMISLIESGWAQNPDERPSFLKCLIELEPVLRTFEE
Test: RIPK2 inhibition (ADP-Glo Kinase Assay)
Format: biochemical
Conditions: RIPK2 5 nM, ATP 150 μM, MBP substrate, read-out: RIPK2 IC50
Procedure: RIPK2 inhibition was measured as follows: The V9102 ADP-Glo Kinase Assay (including ultrapure ATP, 10 mM) was purchased from Promega. […] Method: In a 384 well plate, 10 nL of test compound was dispensed using Echo550 and mixed with RIPK2 enzyme (final concentration of 5 nM) in assay buffer for 30 minutes at room temperature. […] The resulting luminescent signal was measured with an Envision reader to determine the amount of ADP produced. […]
Assign IC50 to each entry below.

Return the recorded IC50 value; entry: CN1CCC(Cc2ccc3nccc(Oc4cnc(CC(=O)Nc5cnn(C(C)(C)C)c5)c(F)c4)c3c2)CC1 [Compound 139]
3.2 nM

Return the recorded IC50 value; entry: COCCOc1ccc2ncnc(Oc3ccc(CC(=O)Nc4cnn(C(C)(C)C)c4)c(F)c3)c2c1 [Compound 50]
15.4 nM

Return the recorded IC50 value; entry: Cc1cc(CC(=O)Nc2cnn(C(C)(C)C)c2)ccc1Oc1ccnc2ccc(C(=O)N3CCNCC3)cc12 [Compound 207]
< 2.5 nM

Return the recorded IC50 value; entry: Cc1cc(CC(=O)Nc2cnn(C(C)(C)C)c2)ccc1Oc1ccnc2ccc(N3CCC(O)C3=O)cc12 (single isomer, unassigned) [Compound 326]
< 2.5 nM

Return the recorded IC50 value; entry: Cc1cc(CC(=O)Nc2cnn(C(C)(C)C)c2)ccc1Oc1ccnc2ccc(N3CCOCC3=O)cc12 [Compound 294]
< 2.5 nM

Return the recorded IC50 value; entry: Cc1cc(CC(=O)Nc2cnn(C(C)(C)C)c2)cc(Cl)c1Oc1ccnc2cc(F)c(C(N)=O)cc12 [Compound 584]
< 2.5 nM

Respectfully, I request IC50 for each entry included below.
1. CC(C)(C)n1cc(NC(=O)Cc2ccc(Oc3ccnc4ccc(N5CCOCC5=O)cc34)cc2F)cn1 [Compound 154]
2. Cc1cc(CC(=O)Nc2cnn(C(C)(C)C)c2)ccc1Oc1ccnc2ccc(OC3CCNCC3F)cc12 (racemic) [Compound 238]
3. Cc1cc(CC(=O)Nc2cnn(C(C)(C)C)c2)ccc1Oc1ccnc2ccc(OC3CCNCC3F)cc12 (racemic) [Compound 237]
4. Cc1cc(CC(=O)Nc2cnn(C(C)(C)C)c2)ccc1Oc1ccnc2ccc(OC3CCC(=O)NC3)cc12 (stereo not drawn) [Compound 307]
5. CC(C)(C)n1cc(NC(=O)Cc2ccc(Oc3ccnc4ccc(CS(C)(=O)=O)cc34)cc2F)cn1 [Compound 75]

< 2.5 nM
< 2.5 nM
< 2.5 nM
< 2.5 nM
< 2.5 nM

Respectfully, I request IC50 for each entry included below.
1. Cc1cc(CC(=O)Nc2cnn(C(C)(C)C)c2)c(F)cc1Oc1ccnc2ccc(P(C)(C)=O)cc12 [Compound 381]
2. Cc1c(Oc2ncnc3ccc(OC4CCN(C)CC4)cc23)ccc(CC(=O)Nc2cnn(C(C)(C)C)c2)c1F [Compound 107]

1: < 2.5 nM; 2: < 2.5 nM

Respectfully, I request IC50 for each entry included below.
1. Cc1cc(CC(=O)Nc2cnn(C(C)(C)C)c2)c(F)cc1Oc1ccnc2ccc(S(=O)(=O)N3C[C@@H](C)O[C@@H](C)C3)cc12 [Compound 389]
2. Cc1cc(CC(=O)Nc2cnn(C3CCCC3)c2)ccc1Oc1ccnc2ccc(S(C)(=O)=O)cc12 [Compound 214]

1. 2.9 nM
2. < 2.5 nM
